Hello, the source for this data is patent US10662235B2, in case you need it.

protocol_description: Thermal stability by differential scanning calorimetry
Format: physicochemical
conditions: c-Met-binding FN3 domains, DSC in PBS
Would you mind telling me the reported Thermal Stability (Tm, C.) of each entry?
Note: unit C. is implicit; provide only the numeric part.

The recorded Thermal Stability (Tm, C.) for P114AR5P74-A5: c-Met-binding FN3 domain, SEQ ID NO: 32 (protein, c-Met binding FN3 domain) LPAPKNLVVSRVTEDSARLSWTAPDAAFDSFWIRYDEVVVGGEAIVLTVPGSERSYDLTGLKPGTEYYVNILGVKGGSISVPLSAIFTT is 74.1

Sample P114AR7P95-D4: c-Met-binding FN3 domain, SEQ ID NO: 45 (protein, c-Met binding FN3 domain) LPAPKNLVVSRVTEDSARLSWTAPDAAFDSFWIRYFEFLGSGEAIVLTVPGSERSYDLTGLKPGTEYVVQILGVKGGYISIPLSAIFTT ; Thermal Stability (Tm, C.) observed: 85.3
